Each entry below lists one item and its recorded MIC value.
- Test system: Moraxella catarrhalis
- ASSAY EXPLANATION: Antibacterial activity against Moraxella catarrhalis by broth-microdilution method
- Assay type: functional
Report the figure in µg/mL without appending any unit label.

Query `CC[C@H]1OC(=O)[C@H](C)[C@H]2OC/C(=N\OCCCc3ccccc3)CCO[C@](C)(C[C@@H](C)C(=O)[C@H](C)[C@H]3NC(=O)O[C@@]31C)[C@H](O[C@@H]1O[C@H](C)C[C@H](N(C)C)[C@H]1O)[C@H]2C` yields MIC of 0.125

---

- Tested on: Streptococcus pyogenes
- ASSAY EXPLANATION: Antibacterial activity against erythromycin-susceptible Streptococcus pyogenes 19615 by broth-microdilution method
- Type: functional
TEST READOUT: MIC

Illustrative cases are given below, each with its answer.
- MOLECULE SMILES: "CC[C@H]1OC(=O)[C@H](C)[C@H]2OC/C(=N\\Oc3ccc(-c4ccccc4)cc3)CCO[C@](C)(C[C@@H](C)C(=O)[C@H](C)[C@H]3NC(=O)O[C@@]31C)[C@H](O[C@@H]1O[C@H](C)C[C@H](N(C)C)[C@H]1O)[C@H]2C"
  MEASURED TARGET: "Streptococcus pyogenes"
  MIC: "≤ 0.06 µg/mL"
- MOLECULE SMILES: "CC[C@H]1OC(=O)[C@H](C)[C@H]2OC/C(=N\\Oc3ccccc3)CCO[C@](C)(C[C@@H](C)C(=O)[C@H](C)[C@H]3NC(=O)O[C@@]31C)[C@H](O[C@@H]1O[C@H](C)C[C@H](N(C)C)[C@H]1O)[C@H]2C"
  MEASURED TARGET: "Streptococcus pyogenes"
  MIC: "≤ 0.06 µg/mL"
- MOLECULE SMILES: "CC[C@H]1OC(=O)[C@H](C)[C@H]2OC/C(=N\\Oc3cccnc3)CCO[C@](C)(C[C@@H](C)C(=O)[C@H](C)[C@H]3NC(=O)O[C@@]31C)[C@H](O[C@@H]1O[C@H](C)C[C@H](N(C)C)[C@H]1O)[C@H]2C"
  MEASURED TARGET: "Streptococcus pyogenes"
  MIC: "≤ 0.06 µg/mL"

Next molecule, please.
Query `CC[C@H]1OC(=O)[C@H](C)[C@H]2OC/C(=N\Oc3cccc(Cl)c3)CCO[C@](C)(C[C@@H](C)C(=O)[C@H](C)[C@H]3NC(=O)O[C@@]31C)[C@H](O[C@@H]1O[C@H](C)C[C@H](N(C)C)[C@H]1O)[C@H]2C` yields MIC of ≤ 0.06 µg/mL
